- tgt: T1, monovalent hVISTA-ECD (human VISTA extracellular domain with His tail) (human, UniProt Q9H7M9 33-193)
- T1 construct: analyte flowed over captured antibody; also called huVISTA-His
- experiment: SPR, pH 6.0
readoutLabel: koff
A complete answer gives the number followed by the unit.

For P1-064510 (41F11_Vk_A25E/V29D/A64G/R91T) (antibody, V domains shown, also called P1-064510-1) VH: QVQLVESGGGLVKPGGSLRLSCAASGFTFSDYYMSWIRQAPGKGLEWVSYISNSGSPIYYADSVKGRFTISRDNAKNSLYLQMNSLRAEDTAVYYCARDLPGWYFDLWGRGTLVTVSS VL: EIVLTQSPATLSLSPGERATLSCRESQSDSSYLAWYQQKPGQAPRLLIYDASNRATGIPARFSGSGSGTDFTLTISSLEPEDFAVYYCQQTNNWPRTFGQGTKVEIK the binder record lists koff as 0.00312 s⁻¹

Record P1-064534 (41F11_VH_D31E/S35Y/Y50W/S55E/A60H/Y100E/F100aG) (antibody, V domains shown, Kabat positions; also called P1-064534-1) VH: QVQLVESGGGLVKPGGSLRLSCAASGFTFSEYYMYWIRQAPGKGLEWVSWISNSGEPIYYHDSVKGRFTISRDNAKNSLYLQMNSLRAEDTAVYYCARDLPGWEGDLWGRGTLVTVSS VL: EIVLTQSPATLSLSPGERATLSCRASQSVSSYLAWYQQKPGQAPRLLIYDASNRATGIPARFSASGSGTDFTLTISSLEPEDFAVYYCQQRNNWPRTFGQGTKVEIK , field koff: 0.00649 s⁻¹

# context switch: different binder, same koff
Field koff (entry P1-064540 (41F11_VH_T28P/Y50W/S55E/A60H/Y100E) (antibody, V domains shown, Kabat positions; also called P1-064540-1) VH: QVQLVESGGGLVKPGGSLRLSCAASGFPFSDYYMSWIRQAPGKGLEWVSWISNSGEPIYYHDSVKGRFTISRDNAKNSLYLQMNSLRAEDTAVYYCARDLPGWEFDLWGRGTLVTVSS VL: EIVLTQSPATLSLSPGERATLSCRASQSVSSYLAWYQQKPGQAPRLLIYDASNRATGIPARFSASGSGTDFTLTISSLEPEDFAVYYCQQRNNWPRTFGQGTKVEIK ) reads 0.00192 s⁻¹
